Counter-ions that a name gives are not always drawn.
Assay read-out IC50; system under study: Human M3 receptor (Homo sapiens, UniProt P20309).
Sequence (P20309 whole entry): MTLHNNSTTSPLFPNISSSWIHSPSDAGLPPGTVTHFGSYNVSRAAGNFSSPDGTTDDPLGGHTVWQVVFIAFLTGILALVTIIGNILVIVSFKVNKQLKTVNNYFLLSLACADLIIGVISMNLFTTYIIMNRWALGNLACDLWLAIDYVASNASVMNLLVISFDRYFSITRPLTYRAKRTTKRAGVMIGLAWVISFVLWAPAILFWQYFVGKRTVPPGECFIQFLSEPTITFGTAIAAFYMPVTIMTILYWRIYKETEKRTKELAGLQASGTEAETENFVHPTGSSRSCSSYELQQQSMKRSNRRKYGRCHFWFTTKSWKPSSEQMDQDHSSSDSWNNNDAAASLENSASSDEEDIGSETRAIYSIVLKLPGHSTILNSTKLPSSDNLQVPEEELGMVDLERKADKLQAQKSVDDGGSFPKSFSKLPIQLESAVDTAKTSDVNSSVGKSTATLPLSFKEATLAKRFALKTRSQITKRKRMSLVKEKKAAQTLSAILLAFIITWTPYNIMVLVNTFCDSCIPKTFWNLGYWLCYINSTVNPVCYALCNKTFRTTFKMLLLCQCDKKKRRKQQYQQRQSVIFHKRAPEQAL

Qu. Any idea what its IC50 is? The compound is O=C(COc1cccc([C@](O)(C(=O)OCC2CCN(Cc3ccccc3)CC2)c2ccccc2)c1)N[C@H]1C[C@H](NC(=O)Cc2ccc(CNC[C@H](O)c3ccc(O)c4[nH]c(=O)ccc34)cc2)C1 [Compound 146]
Ans. 0.3 to 3 nM

Qu. Continue with O=C(c1cccc(COc2cccc([C@](O)(C(=O)OCC3CCN(Cc4ccccc4)CC3)c3ccccc3)c2)c1)N1CCC(CNC[C@H](O)c2ccc(O)c3[nH]c(=O)ccc23)CC1 [Compound 35]
Ans. < 0.3 nM

Qu. Continue with O=C(Nc1cccc(C(O)(C(=O)OCC2CCN(Cc3ccccc3)CC2)c2ccccc2)c1)OCCCCCNC[C@H](O)c1ccc(O)c2[nH]c(=O)ccc12 (some centres unmarked) [Compound 54, bis hydrochloride]
Ans. 0.3 to 3 nM

Qu. Continue with CCOc1cc(C(=O)NCCCOc2cccc([C@](O)(C(=O)OCC3CCN(Cc4ccccc4)CC3)c3ccccc3)c2)ccc1CNC[C@H](O)c1ccc(O)c2[nH]c(=O)ccc12 [Compound 32D]
Ans. 0.3 to 3 nM

Qu. Continue with O=C(N[C@H]1CCN(C(=O)COc2cccc([C@](O)(C(=O)OCC3CCN(Cc4ccccc4)CC3)c3ccccc3)c2)C1)c1ccc(CCNC[C@H](O)c2ccc(O)c3[nH]c(=O)ccc23)cc1 [Compound 109]
Ans. 0.3 to 3 nM

Qu. Continue with CN1CCC(COC(=O)[C@@](O)(c2ccccc2)c2cccc(OCCCCCNC[C@H](O)c3ccc(O)c4[nH]c(=O)ccc34)c2)CC1 [Compound 24]
Ans. > 3 nM

Qu. Continue with O=C(OCC1CCN(Cc2ccccc2)CC1)[C@](O)(c1ccccc1)c1cccc(OCCCCCCCCNCC(O)c2ccc(O)c3[nH]c(=O)ccc23)c1 (stereo in doubt) [Compound 30]
Ans. 0.3 to 3 nM

Qu. Continue with O=C(NC1CN(C(=O)COc2cccc([C@](O)(C(=O)OCC3CCN(Cc4ccccc4)CC3)c3ccccc3)c2)C1)c1ccc(CNC[C@H](O)c2ccc(O)c3[nH]c(=O)ccc23)cc1 [Compound 67]
Ans. < 0.3 nM

Qu. Continue with O=C(COc1cccc([C@](O)(C(=O)OCC2CCN(Cc3ccccc3)CC2)c2ccccc2)c1)N[C@H]1C[C@H](NC(=O)c2ccc(CNC[C@H](O)c3ccc(O)c4[nH]c(=O)ccc34)c(F)c2F)C1 [Compound 134]
Ans. 0.3 to 3 nM

Qu. Continue with Cc1ccccc1C(O)(C(=O)OCC1CCN(Cc2ccccc2)CC1)c1cccc(OCCCCCNC[C@H](O)c2ccc(O)c3[nH]c(=O)ccc23)c1 (some centres unmarked) [Compound 7]
Ans. > 3 nM

Qu. Continue with O=C(N[C@@H]1CCN(C(=O)COc2cccc([C@](O)(C(=O)OCC3CCN(Cc4ccccc4)CC3)c3ccccc3)c2)C1)c1ccc(CNC[C@H](O)c2ccc(O)c3[nH]c(=O)ccc23)cc1 [Compound 76]
Ans. 0.3 to 3 nM

Qu. Continue with O=C(COc1cccc([C@](O)(C(=O)OCC2CCN(Cc3ccccc3)CC2)c2ccccc2)c1)N[C@H]1C[C@H](NC(=O)c2ccc(CCNC[C@H](O)c3ccc(O)c4[nH]c(=O)ccc34)cc2)C1 [Compound 88]
Ans. < 0.3 nM

Qu. Continue with COc1cc(CNC[C@H](O)c2ccc(O)c3[nH]c(=O)ccc23)ccc1C(=O)NCC(=O)N1CCC(COc2cccc([C@](O)(C(=O)OCC3CCN(Cc4ccccc4)CC3)c3ccccc3)c2)CC1 [Compound 155]
Ans. 0.3 to 3 nM

Qu. Continue with O=C(COc1cccc([C@](O)(C(=O)OCC2CCN(Cc3ccccc3)CC2)c2ccccc2)c1)N[C@@H]1CCCN(C(=O)c2ccc(CCNC[C@H](O)c3ccc(O)c4[nH]c(=O)ccc34)cc2)C1 [Compound 105]
Ans. 0.3 to 3 nM

Qu. Continue with O=C(NCCCOc1cccc([C@](O)(C(=O)OCC2CCN(Cc3ccccc3)CC2)c2ccccc2)c1)c1ccc(CNC[C@H](O)c2ccc(O)c3[nH]c(=O)ccc23)c(F)c1F [Compound 32L]
Ans. 0.3 to 3 nM

Qu. Continue with O=C(NCCCNC[C@H](O)c1ccc(O)c2[nH]c(=O)ccc12)c1ccc(COc2cccc([C@](O)(C(=O)OCC3CCN(Cc4ccccc4)CC3)c3ccccc3)c2)cc1 [Compound 43]
Ans. < 0.3 nM

Qu. Continue with O=C(NCc1ccc(COc2cccc([C@](O)(C(=O)OCC3CCN(Cc4ccccc4)CC3)c3ccccc3)c2)cc1)c1ccc(CCNC[C@H](O)c2ccc(O)c3[nH]c(=O)ccc23)cc1 [Compound 42C]
Ans. 0.3 to 3 nM

Qu. Continue with O=C(c1ccc(CCNC[C@H](O)c2ccc(O)c3[nH]c(=O)ccc23)cc1)N1CCC(C(=O)N2CCC(COc3cccc([C@](O)(C(=O)OCC4CCN(Cc5ccccc5)CC4)c4ccccc4)c3)CC2)CC1 [Compound 151]
Ans. < 0.3 nM

Qu. Continue with O=C(COc1cccc([C@](O)(C(=O)OCC2CCN(Cc3ccccc3)CC2)c2ccccc2)c1)N1CCC(C(=O)N2CCC(CNC[C@H](O)c3ccc(O)c4[nH]c(=O)ccc34)CC2)CC1 [Compound 148]
Ans. 0.3 to 3 nM

Qu. Continue with CN(CCNC(=O)c1ccc(CNC[C@H](O)c2ccc(O)c3[nH]c(=O)ccc23)cc1)C(=O)COc1cccc([C@](O)(C(=O)OCC2CCN(Cc3ccccc3)CC2)c2ccccc2)c1 [Compound 60]
Ans. 0.3 to 3 nM
